Reference source for all entries: ChEMBL document CHEMBL5260854

# test.name: Lipophilicity, logD of the compound at pH 7.4
# Format: physicochemical
# run.parameters: buffer
Sorting guide: entries reporting logD beneath 2 go in the True pile, the rest go in the False pile.

For this compound, is logD lower than 2? `COC(=O)c1sc(-c2ccccc2)nc1O`
False

Then `O=C(c1sc(-c2ccccc2O)nc1O)N1CCCO1` ?
True

Queued: `COc1cccc(NS(=O)(=O)c2c(C)cc(C)c([N+](=O)[O-])c2C)c1`
False

***
Record `CCCC(=O)c1sc(-c2cccc(F)c2)nc1O` : is its logD strictly below 2?
True

Can you check `CC(C)C(=O)c1sc(-c2cccc(F)c2)nc1O` next?
True

What about this compound? `CC(C)CC(=O)c1sc(-c2cccc(F)c2)nc1O`
True
